Exercise: state measured Experiment results (relative activation fold) PPARα for each of the molecules provided.
target: PPARα (Homo sapiens (Human), UniProt Q07869); experiment: Nuclear receptor reporter gene (luciferase) screening model, PPARα activation in HepG2 cells; assay type: cell-based; conditions: 5 uM; HepG2; solvent control = 1
Sequence (Q07869 whole entry, species assumed): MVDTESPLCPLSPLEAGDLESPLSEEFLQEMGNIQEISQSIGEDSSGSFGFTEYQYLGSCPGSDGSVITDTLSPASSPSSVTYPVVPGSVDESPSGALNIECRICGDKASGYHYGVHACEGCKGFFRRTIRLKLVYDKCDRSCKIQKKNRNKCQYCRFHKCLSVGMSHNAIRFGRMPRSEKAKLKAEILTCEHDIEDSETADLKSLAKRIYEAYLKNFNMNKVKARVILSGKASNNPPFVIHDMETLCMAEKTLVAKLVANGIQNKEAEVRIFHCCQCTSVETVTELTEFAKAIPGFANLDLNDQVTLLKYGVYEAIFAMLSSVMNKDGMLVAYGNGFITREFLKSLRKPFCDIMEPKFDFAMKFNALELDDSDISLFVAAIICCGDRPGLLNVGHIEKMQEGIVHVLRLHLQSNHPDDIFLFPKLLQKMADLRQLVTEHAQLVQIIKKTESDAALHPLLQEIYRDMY
Sequence (P19793 whole entry partner, species assumed): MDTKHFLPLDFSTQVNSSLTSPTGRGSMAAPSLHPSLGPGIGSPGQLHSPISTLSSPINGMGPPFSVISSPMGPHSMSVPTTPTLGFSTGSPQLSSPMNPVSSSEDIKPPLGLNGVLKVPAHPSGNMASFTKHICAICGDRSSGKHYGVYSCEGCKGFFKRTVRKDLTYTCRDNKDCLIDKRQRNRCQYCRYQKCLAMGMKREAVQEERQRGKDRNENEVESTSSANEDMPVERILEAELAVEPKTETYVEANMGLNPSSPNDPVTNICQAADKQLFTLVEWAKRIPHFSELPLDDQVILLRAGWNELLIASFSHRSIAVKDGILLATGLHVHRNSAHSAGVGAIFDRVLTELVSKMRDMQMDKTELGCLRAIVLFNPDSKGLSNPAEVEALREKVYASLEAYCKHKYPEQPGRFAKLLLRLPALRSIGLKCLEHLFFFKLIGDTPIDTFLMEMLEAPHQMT
Respond numerically; units are fold and should not be typed.

Q: Look up Experiment results (relative activation fold) PPARα for this molecule: `CCc1cc(OCCc2nc(-c3ccc(C#N)cc3)oc2C)ccc1CCC(=O)O`
A: 1.71

Q: Look up Experiment results (relative activation fold) PPARα for this molecule: `CCc1cc(OCCc2nc(-c3ccc(F)cc3)oc2C)ccc1CCC(=O)O`
A: 1.35

Q: Look up Experiment results (relative activation fold) PPARα for this molecule: `CCc1cc(OCCc2nc(-c3ccc(C)cc3)oc2C)ccc1CCC(=O)O`
A: 1.98

Q: Look up Experiment results (relative activation fold) PPARα for this molecule: `CCc1cc(OCCc2nc(-c3ccc([N+](=O)[O-])cc3)oc2C)ccc1CCC(=O)O`
A: 1.66

Q: Look up Experiment results (relative activation fold) PPARα for this molecule: `CCc1cc(OCCc2nc(-c3ccc(-c4nnn[nH]4)cc3)oc2C)ccc1CCC(=O)O`
A: 1.76

Q: Look up Experiment results (relative activation fold) PPARα for this molecule: `CCc1cc(OCCc2nc(-c3ccc(C(N)=O)cc3)oc2C)ccc1CCC(=O)O`
A: 1.63

Q: Look up Experiment results (relative activation fold) PPARα for this molecule: `CCc1cc(OCCc2coc(-c3ccc(C(F)(F)F)cc3)n2)ccc1CCC(=O)O`
A: 1.38

Q: Look up Experiment results (relative activation fold) PPARα for this molecule: `CCc1cc(OCCc2nc(-c3ccc(C(F)(F)F)cc3)oc2C)ccc1CCC(=O)O`
A: 1.33

Q: Look up Experiment results (relative activation fold) PPARα for this molecule: `CCc1cc(OCCc2nc(-c3ccc(C(C)(C)C)cc3)oc2C)ccc1CCC(=O)O`
A: 2.31

Taken from patent US9346770B2.
